test system: p16-3MR mice; test: ROC analysis of discriminatory power of circulating microRNAs; assay type: in vivo, mouse; settings: serum, RT-qPCR, DOX/GCV vs DOX; symbol after the number = significance
Marks after values point to notes of the source that are not given here.
Item-by-item account of ROC Analysis AUC Senolytic Treatment
Measurement Type: ROC Analysis AUC Senolytic Treatment

substance="miR-34a-5p: circulating microRNA biomarker, SEQ ID No. 1 (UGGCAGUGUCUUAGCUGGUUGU; expressed or natural sequence; listed as Homo sapiens)" measurement_type="ROC Analysis AUC Senolytic Treatment" test_value=0.672°
substance="miR-125a-5p: circulating microRNA biomarker, SEQ ID No. 90 (UCCCUGAGACCCUUUAACCUGUGA; expressed or natural sequence; listed as Homo sapiens)" measurement_type="ROC Analysis AUC Senolytic Treatment" test_value=0.789*
substance="miR-409-3p: circulating microRNA biomarker, SEQ ID No. 89 (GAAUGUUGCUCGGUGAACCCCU; expressed or natural sequence; listed as Homo sapiens)" measurement_type="ROC Analysis AUC Senolytic Treatment" test_value=0.859*
substance="miR-181b-5p: circulating microRNA biomarker, SEQ ID No. 84 (AACAUUCAUUGCUGUCGGUGGGU; expressed or natural sequence; listed as Homo sapiens)" measurement_type="ROC Analysis AUC Senolytic Treatment" test_value=0.75+
substance="miR-375-5p: circulating microRNA biomarker, SEQ ID No. 88 (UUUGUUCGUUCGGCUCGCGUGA; expressed or natural sequence; listed as Homo sapiens)" measurement_type="ROC Analysis AUC Senolytic Treatment" test_value=0.859*

---

Tested on: p16-3MR mice
Experiment: RT-qPCR verification of serum circulating microRNA changes, one-way ANOVA
Assay type: in vivo, mouse
Details: serum, n=8 per group, male and female mice
Protocol: p16-3MR (Demaria et al, 2014, Developmental Cell 31:722-733) mice were bred in house and maintained in the AALAC-accredited Buck Institute for Research on Aging (Novato, Calif.) animal facility. […] Statistical analysis was performed using Medcalc (version 18.2.1). Normal distribution was assessed using D'Agostino-Pearson test, where normality was accepted at p>0.05. […] ROC curves were plotted using sensitivity (y-axis) and 1-specificity (x-axis) and the area under the ROC curve (AUC) was calculated. […]
Measurement Type: One-way ANOVA Senescence (DOX vs PBS)

substance="miR-375-5p: circulating microRNA biomarker, SEQ ID No. 88 (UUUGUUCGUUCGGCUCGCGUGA; expressed or natural sequence; listed as Homo sapiens)" subject_of_test="p16-3MR mice" test_value=○

---

tested on: p16-3MR mice; assay: ROC analysis of discriminatory power of circulating microRNAs; type: in vivo, mouse; conditions: serum, RT-qPCR, DOX/GCV vs DOX; symbol after the number = significance
Marks after values point to notes of the source that are not given here.
Measured ROC Analysis AUC Senolytic Treatment values are reported for all entries that follow.
Measurement Type: ROC Analysis AUC Senolytic Treatment

substance="miR-215-5p: circulating microRNA biomarker, SEQ ID No. 86 (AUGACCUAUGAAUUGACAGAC; expressed or natural sequence; listed as Homo sapiens)" subject_of_test="p16-3MR mice" test_value=0.922*
substance="miR-34a-3p: circulating microRNA biomarker, SEQ ID No. 59 (CAAUCAGCAAGUAUACUGCCCU; expressed or natural sequence; listed as Homo sapiens)" subject_of_test="p16-3MR mice" test_value=0.5°
substance="miR-151-5p: circulating microRNA biomarker, SEQ ID No. 17 (UCGAGGAGCUCACAGUCUAGU; expressed or natural sequence; listed as Homo sapiens)" subject_of_test="p16-3MR mice" test_value=0.609°
substance="miR-199a-5p: circulating microRNA biomarker, SEQ ID No. 81 (CCCAGUGUUCAGACUACCUGUUC; expressed or natural sequence; listed as Homo sapiens)" subject_of_test="p16-3MR mice" test_value=0.781*
substance="miR-23b-3p: circulating microRNA biomarker, SEQ ID No. 47 (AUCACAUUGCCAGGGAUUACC; expressed or natural sequence; listed as Homo sapiens)" subject_of_test="p16-3MR mice" test_value=0.875*
substance="miR-199b-5p: circulating microRNA biomarker, SEQ ID No. 82 (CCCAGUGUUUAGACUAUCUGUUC; expressed or natural sequence; listed as Homo sapiens)" subject_of_test="p16-3MR mice" test_value=0.734+

---

tested on: p16-3MR mice; assay: ROC analysis of discriminatory power of circulating microRNAs; type: in vivo, mouse; settings: serum, RT-qPCR, DOX vs PBS; symbol after the number = significance
Measurement Type: ROC Analysis AUC Senescence (°)

substance="miR-409-3p: circulating microRNA biomarker, SEQ ID No. 89 (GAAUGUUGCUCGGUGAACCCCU; expressed or natural sequence; listed as Homo sapiens)" test_value=0.609
substance="miR-183-3p: circulating microRNA biomarker, SEQ ID No. 85 (GUGAAUUACCGAAGGGCCAUAA; expressed or natural sequence; listed as Homo sapiens)" test_value=0.563
substance="miR-23b-3p: circulating microRNA biomarker, SEQ ID No. 47 (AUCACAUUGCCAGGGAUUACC; expressed or natural sequence; listed as Homo sapiens)" test_value=0.563
substance="miR-483-5p: circulating microRNA biomarker, SEQ ID No. 91 (AAGACGGGAGGAAAGAAGGGAG; expressed or natural sequence; listed as Homo sapiens)" test_value=0.563

---

Examples of substances with documented log fold change follow.
Test system: p16-3MR mice
Assay: Next generation sequencing of circulating miRNAs in serum after induction (dox) and removal (GCV) of senescent cells
Type: in vivo, mouse
Settings: serum miRNA, NGS, dox vs pbs, p16-3MR mice
Protocol: p16-3MR (Demaria et al, 2014, Developmental Cell 31:722-733) mice were bred in house and maintained in the AALAC-accredited Buck Institute for Research on Aging (Novato, Calif.) animal facility. […] Total RNA extraction was performed from 200 μl of serum using the Qiagen miRNeasy™ extraction kit (Qiagen, Germany). […] Due to the high purity, libraries were not purified prior to sequencing on an ILLUMINA™ NextSeq 500 sequencing system with 50 bp single-end reads. […]
Measurement Type: log fold change

substance="mmu-let-7f-5p: circulating microRNA, SEQ ID No. 2 (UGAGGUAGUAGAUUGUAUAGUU; expressed or natural sequence; listed as Homo sapiens)" test_value=−1.29
substance="miR-27a-3p: circulating microRNA biomarker, SEQ ID No. 5 (UUCACAGUGGCUAAGUUCCGC; expressed or natural sequence; listed as Homo sapiens)" test_value=1.08
substance="mmu-miR-143-3p: circulating microRNA, SEQ ID No. 4 (UGAGAUGAAGCACUGUAGCUC; expressed or natural sequence; listed as Homo sapiens)" test_value=−1.57
substance="mmu-miR-144-5p: circulating microRNA, SEQ ID No. 7 (GGAUAUCAUCAUAUACUGUAAG; expressed or natural sequence; listed as Homo sapiens)" test_value=−1.06
substance="miR-34a-5p: circulating microRNA biomarker, SEQ ID No. 1 (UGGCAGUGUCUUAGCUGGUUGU; expressed or natural sequence; listed as Homo sapiens)" test_value=1.13

---

system: p16-3MR mice; assay: RT-qPCR verification of serum circulating microRNA changes, one-way ANOVA; type: in vivo, mouse; conditions: serum, n=8 per group, male and female mice
Measurement Type: One-way ANOVA Senescence (DOX vs PBS)

substance="miR-151-5p: circulating microRNA biomarker, SEQ ID No. 17 (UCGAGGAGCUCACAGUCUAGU; expressed or natural sequence; listed as Homo sapiens)" measurement_type="One-way ANOVA Senescence (DOX vs PBS)" test_value="* (significant p < 0.05)"
substance="miR-34a-5p: circulating microRNA biomarker, SEQ ID No. 1 (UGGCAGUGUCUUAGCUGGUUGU; expressed or natural sequence; listed as Homo sapiens)" measurement_type="One-way ANOVA Senescence (DOX vs PBS)" test_value="* (significant p < 0.05)"
substance="miR-199b-5p: circulating microRNA biomarker, SEQ ID No. 82 (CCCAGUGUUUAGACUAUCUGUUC; expressed or natural sequence; listed as Homo sapiens)" measurement_type="One-way ANOVA Senescence (DOX vs PBS)" test_value="* (significant p < 0.05)"
substance="miR-34a-3p: circulating microRNA biomarker, SEQ ID No. 59 (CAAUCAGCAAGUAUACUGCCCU; expressed or natural sequence; listed as Homo sapiens)" measurement_type="One-way ANOVA Senescence (DOX vs PBS)" test_value="* (significant p < 0.05)"
substance="miR-483-5p: circulating microRNA biomarker, SEQ ID No. 91 (AAGACGGGAGGAAAGAAGGGAG; expressed or natural sequence; listed as Homo sapiens)" measurement_type="One-way ANOVA Senescence (DOX vs PBS)" test_value=○
substance="miR-24-3p: circulating microRNA biomarker, SEQ ID No. 21 (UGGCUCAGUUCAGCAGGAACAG; expressed or natural sequence; listed as Homo sapiens)" measurement_type="One-way ANOVA Senescence (DOX vs PBS)" test_value=○
substance="miR-409-3p: circulating microRNA biomarker, SEQ ID No. 89 (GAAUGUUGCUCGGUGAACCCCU; expressed or natural sequence; listed as Homo sapiens)" measurement_type="One-way ANOVA Senescence (DOX vs PBS)" test_value=○
substance="miR-181b-5p: circulating microRNA biomarker, SEQ ID No. 84 (AACAUUCAUUGCUGUCGGUGGGU; expressed or natural sequence; listed as Homo sapiens)" measurement_type="One-way ANOVA Senescence (DOX vs PBS)" test_value="+ (by trend p < 0.2)"
substance="miR-125a-5p: circulating microRNA biomarker, SEQ ID No. 90 (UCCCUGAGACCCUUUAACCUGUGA; expressed or natural sequence; listed as Homo sapiens)" measurement_type="One-way ANOVA Senescence (DOX vs PBS)" test_value="+ (by trend p < 0.2)"
substance="miR-215-5p: circulating microRNA biomarker, SEQ ID No. 86 (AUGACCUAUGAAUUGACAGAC; expressed or natural sequence; listed as Homo sapiens)" measurement_type="One-way ANOVA Senescence (DOX vs PBS)" test_value=○
